Tested on: C2C12 cells
procedureDetails: Alkaline Phosphatase (ALP) functional activity assay in C2C12 cells
Format: cell-based, Mouse
measurementParameters: Mus musculus, C2C12, 144 h; compounds of Formula II or IV, presence of calcium phosphate matrix, normalized to DMSO treatment
Provide the reported activation at 0.5 µM of each item.

Answered cases to consult:
| compound | reportedMeasurement |
| --- | --- |
| CC(=O)N1c2ccc(F)cc2[C@H](Nc2ccc(F)cc2)C[C@@H]1C (relative stereo) | 5 to 50% |
| CC(=O)N1c2ccc(C)cc2[C@@H](Nc2ccc(C)cc2)C[C@@H]1C (relative stereo) | < 5% |
| Cc1ccc(N[C@@H]2C[C@H](C)Nc3ccc(C)cc32)cc1 (relative stereo) | 5 to 50% |
| CC(=O)N1c2ccc(C)cc2[C@@H](N(C(C)=O)c2ccc(C)cc2)C[C@@H]1C (relative stereo) | 5 to 50% |

# evaluate next
Ask: Checklist item: activation at 0.5 µM tested on C2C12 cells, entry COc1ccc(C(=O)N2c3ccc(F)cc3[C@H](Nc3ccc(F)cc3)C[C@@H]2C)cc1 (relative stereo) , value?
Result: 5 to 50%

Data origin, for the record: patent US11596716B2
